Origin of the recorded values: patent US6525001B1

System: giant foxtail (Setaria faberii)
Test: Test B pre-/postemergence
Assay type: in vivo
Conditions: Rate 125 g/ha, Postemergence
Examples of molecules with documented Giant foxtail plant response rating follow.

Completed entries (count: 2):
entry.smiles: Cc1cnc(-n2cnc(C(F)(F)F)c2)nc1C(=O)c1cccc(C(F)(F)F)c1
readout.value: 4
//
entry.smiles: Cc1cnc(-c2ccc(Cl)c(Cl)c2)nc1Cc1cccc(C(F)(F)F)c1
readout.value: 4

Now consider the entry below.
Ask | # get_value(readout='Giant foxtail plant response rating', item= Cc1cnc(-c2ccc(Cl)cc2F)nc1Cc1cccc(C(F)(F)F)c1 )
Reply | 4
